- Tested on: HOP-92 NSCLC
- assay-name: NCI tumour cell line growth inhibition, 48 h
readout-type: TGI (µM)
Your answer should be a plain number; it is taken to be in µM.

Recorded TGI of `CCOc1ccc(/C=C/C(=O)c2ccccc2)cc1` , please.
41.2

Recorded TGI of C=CC(=O)N1CCCC(n2nc(-c3ccc(Oc4ccccc4)cc3)c3c(N)ncnc32)C1 (configuration not stated) , please.
10.5

Recorded TGI of `Cc1ccc(C(=O)c2oc3ccc4c(C)cc(=O)oc4c3c2C)cc1` , please.
95.2

Recorded TGI of `COc1cc(-c2nc3ccc(C)cc3[nH]2)ccc1OCC(=O)N=Nc1c(O)[nH]c2ccccc12` , please.
3.28

Recorded TGI of `CC(C)(C)OC(=O)N1C(OP(=O)(Oc2ccccc2)Oc2ccccc2)=COc2cccnc21` , please.
92.5

Recorded TGI of `Oc1ccc(N=Nc2ccc(Cl)cc2)cc1` , please.
29.2

Recorded TGI of CCCCCCCCCCCCCCCCCCOCC(O)COP(=O)(O)OCC1OC(n2cc(F)c(=O)[nH]c2=O)CC1O (configuration not stated) , please.
24.2

====

- Tested on: ACHN renal
- assay-name: NCI tumour cell line growth inhibition, 48 h
Recorded TGI, one value per entry.

CCN(CC)c1ccc(N=Nc2ccc(-c3nc4cccnc4o3)cc2)cc1    > 100 µM
CCOC(=O)C(C)(C)Oc1ccc2c(=O)cc(-c3ccc(Cl)cc3)oc2c1    > 100 µM
c1ccc2c(c1)[I+]c1ccccc1-2    > 50 µM
CC(=O)OCC1OC(n2c(-c3ccccc3)cc(-c3ccco3)c(C#N)c2=O)C(OC(C)=O)C(OC(C)=O)C1OC(C)=O (stereo not given)    > 100 µM
Cc1cc(S(=O)(=O)Nc2nnc3cc(C(F)(F)F)cc(C)n23)c(S)cc1Cl    > 100 µM
COc1cc([C@H](C)c2ccc3ccccc3c2)cc(OC)c1OC    > 100 µM
COc1cc2ccnc3c2c(c1O)N(C)C=C3    27.6 µM
COc1cc(OC)c(/C=C/c2ccc3ccccc3[n+]2C)c(OC)c1    > 75.5 µM

Recorded TGI of `CC(C)(C)N1Cc2ccccc2/C(=C/Sc2ccccc2)C1=O` , please.
32 µM

Recorded TGI of CCOC(=O)C(C(=O)Cc1ccccc1)c1ccccc1 (stereo not given) , please.
> 100 µM

====

Recorded TGI, one value per entry.
- Tested on: LOX IMVI melanoma
- assay-name: NCI tumour cell line growth inhibition, 48 h

CN(C(=O)c1ccc(Cl)s1)C(=S)N(C)C(=O)c1ccc(Cl)s1    > 10 µM
CCN(CC)c1ccc(N=Nc2ccc(-c3nc4cccnc4o3)cc2)cc1    > 100 µM

Moving on to the next compound.
Recorded TGI of CC1=C2C(O)C(C(C)CO)C(O)CC2(C)C(O)CC1 (stereo not drawn) , please.
> 100 µM

====

- System: NCI-H460 lung
- assay-name: NCI tumour cell line growth inhibition, 48 h
Where a SMILES comes first, the peptide text is derived from it. [ ]: non-standard residue; d: D form. The star is where a group is joined. Cbz = O=C(OCc1ccccc1)*; Boc = CC(C)(C)OC(=O)*; Aib = CC(C)(N)C(=O)O; OBn = c1ccc(CO*)cc1; OtBu = CC(C)(C)O*; βAla = NCCC(=O)O
readout-type: TGI

Cc1cc(S(=O)(=O)Nc2nc(N)nc(N3N=CCC3C)n2)c(S)cc1Cl (stereo not drawn)    > 10 µM
Cc1cc2nc3c(C(OC4OC(CO)C(O)C(O)C4O)C(O)CO)nn(-c4ccccc4)c3nc2cc1C (stereo not drawn)    > 100 µM
CSCCC(NC(=O)OC(C)(C)C)C(=O)NCCNc1ccc(NCCNC(=O)C(CCSC)NC(=O)OC(C)(C)C)c2c1C(=O)c1ccccc1C2=O (stereo not drawn)    23.1 µM
N#Cc1c2c(c(N3CCOCC3)n3c1nc1ccccc13)CCCC2    56.4 µM
COc1ccc2c(c1)C(=O)CC(N)C2 (stereo not drawn)    > 100 µM

Recorded TGI of `CN(C)CCNc1nc2ccccc2c2c1c1c(n2Cc2ccccc2)-c2ccccc2C1=O` , please.
26.7 µM

Recorded TGI of CC1=CSC2=NC(c3ccc(Cl)c(Cl)c3)=CC(c3ccc(Cl)cc3)N12 (stereo not drawn) , please.
> 100 µM

Recorded TGI of `O=c1cc(-c2ccccc2)[nH]c2cc(Cl)cc(Cl)c12` , please.
> 100 µM

Recorded TGI of `CCOC(=O)C(C)(C)Oc1ccc2c(=O)cc(-c3ccc(Cl)cc3)oc2c1` , please.
> 100 µM

Recorded TGI of `O=C(NCCNCCO)N/N=C/c1ccc(Cl)cc1` , please.
> 100 µM

Recorded TGI of `CC1(C)C(=O)N(c2ccccc2)C(=O)N1c1nc2ccccc2[nH]1` , please.
> 100 µM

Recorded TGI of CC(C)(C)OC(=O)CC(NC(=O)OC(C)(C)C)C(=O)NC(CCCCNC(=O)OCc1ccccc1)C(=O)NC(C)(C)C(=O)NCCC(=O)OCc1ccccc1 (stereo not drawn) (Boc-D(OtBu)K(Cbz)[Aib][βAla]-OBn; configuration not given here) , please.
> 100 µM

Recorded TGI of `C=CCc1cc2cccc(OC)c2oc1=O` , please.
> 100 µM
